- measurement_target: human DNA polymerase β (Homo sapiens, UniProt P06746)
- Construct: Mammalian DNA polymerases alpha, beta, gamma, and delta were partially purified from K562 celles; endogenous in cells; host or cells: K562 (chronic myelogenous leukemia tissue culture line)
- assay_explanation: Human DNA polymerase inhibition, beta
- Format: biochemical
- assay_context: Pol β; "activated" DNA; read-out: ID50 (the source's name)
pIC50: −log10 of the molar value.
measured_property: pIC50

compound="O=C(O)P(=O)(O)O [PFA, phosphonoformic acid]" measured_property=pIC50 assay_value="< 4.00"

###

- measurement_target: human DNA polymerase α (Homo sapiens, UniProt P09884)
- Construct: Mammalian DNA polymerases alpha, beta, gamma, and delta were partially purified from K562 celles; endogenous in cells; host or cells: K562 (chronic myelogenous leukemia tissue culture line)
- Sequence (P09884 whole entry): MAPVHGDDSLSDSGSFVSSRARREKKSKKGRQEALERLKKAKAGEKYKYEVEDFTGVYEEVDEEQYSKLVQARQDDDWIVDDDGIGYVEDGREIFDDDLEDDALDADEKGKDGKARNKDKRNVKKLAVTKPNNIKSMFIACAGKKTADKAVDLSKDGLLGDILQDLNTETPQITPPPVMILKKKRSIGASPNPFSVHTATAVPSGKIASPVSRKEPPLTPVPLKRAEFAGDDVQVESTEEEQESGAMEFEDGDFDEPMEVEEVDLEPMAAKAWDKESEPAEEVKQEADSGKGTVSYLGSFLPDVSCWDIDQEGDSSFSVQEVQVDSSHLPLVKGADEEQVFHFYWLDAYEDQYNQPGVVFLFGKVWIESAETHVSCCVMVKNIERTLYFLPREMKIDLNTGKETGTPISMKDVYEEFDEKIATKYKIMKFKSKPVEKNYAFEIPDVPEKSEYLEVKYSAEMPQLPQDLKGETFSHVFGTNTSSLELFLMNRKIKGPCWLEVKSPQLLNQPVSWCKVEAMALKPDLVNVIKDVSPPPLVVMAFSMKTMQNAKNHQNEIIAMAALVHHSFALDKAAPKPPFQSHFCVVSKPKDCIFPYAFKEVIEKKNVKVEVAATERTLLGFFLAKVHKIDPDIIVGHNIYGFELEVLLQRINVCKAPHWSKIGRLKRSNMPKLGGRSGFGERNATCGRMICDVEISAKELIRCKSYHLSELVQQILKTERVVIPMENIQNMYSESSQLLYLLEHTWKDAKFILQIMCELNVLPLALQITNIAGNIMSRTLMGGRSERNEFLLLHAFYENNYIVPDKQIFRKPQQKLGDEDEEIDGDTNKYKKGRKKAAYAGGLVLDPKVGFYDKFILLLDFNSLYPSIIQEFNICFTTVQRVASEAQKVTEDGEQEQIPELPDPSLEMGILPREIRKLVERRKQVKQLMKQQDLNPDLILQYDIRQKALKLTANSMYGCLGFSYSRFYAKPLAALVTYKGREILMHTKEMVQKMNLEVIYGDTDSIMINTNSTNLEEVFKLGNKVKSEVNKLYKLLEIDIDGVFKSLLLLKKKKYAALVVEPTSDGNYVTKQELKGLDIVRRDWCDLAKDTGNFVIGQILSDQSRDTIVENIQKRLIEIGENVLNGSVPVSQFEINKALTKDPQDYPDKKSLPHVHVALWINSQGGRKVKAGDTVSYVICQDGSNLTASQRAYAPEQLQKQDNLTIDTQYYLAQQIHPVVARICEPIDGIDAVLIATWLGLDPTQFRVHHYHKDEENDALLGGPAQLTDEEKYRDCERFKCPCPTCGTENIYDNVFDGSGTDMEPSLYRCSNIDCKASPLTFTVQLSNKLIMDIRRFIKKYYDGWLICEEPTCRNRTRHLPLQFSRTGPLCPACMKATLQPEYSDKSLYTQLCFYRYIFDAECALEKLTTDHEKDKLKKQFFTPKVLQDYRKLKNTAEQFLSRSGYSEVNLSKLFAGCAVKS
- Sequence (Q14181 whole entry partner): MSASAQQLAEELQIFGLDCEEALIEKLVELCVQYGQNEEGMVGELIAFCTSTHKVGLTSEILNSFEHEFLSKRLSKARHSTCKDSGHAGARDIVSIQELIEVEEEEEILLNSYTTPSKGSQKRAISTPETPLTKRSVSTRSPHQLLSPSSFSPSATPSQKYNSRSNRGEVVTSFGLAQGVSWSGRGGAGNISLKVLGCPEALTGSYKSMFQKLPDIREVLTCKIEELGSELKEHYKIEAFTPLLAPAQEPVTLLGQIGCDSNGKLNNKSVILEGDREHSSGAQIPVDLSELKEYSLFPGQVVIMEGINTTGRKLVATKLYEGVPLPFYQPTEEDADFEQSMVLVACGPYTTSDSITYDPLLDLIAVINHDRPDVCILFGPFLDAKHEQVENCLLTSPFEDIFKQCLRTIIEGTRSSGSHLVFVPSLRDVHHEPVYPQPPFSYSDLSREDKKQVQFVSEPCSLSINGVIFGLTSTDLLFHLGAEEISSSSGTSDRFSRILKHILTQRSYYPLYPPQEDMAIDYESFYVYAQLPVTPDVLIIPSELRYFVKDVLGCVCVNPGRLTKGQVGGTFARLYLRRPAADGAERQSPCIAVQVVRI
- Sequence (P49642 whole entry partner): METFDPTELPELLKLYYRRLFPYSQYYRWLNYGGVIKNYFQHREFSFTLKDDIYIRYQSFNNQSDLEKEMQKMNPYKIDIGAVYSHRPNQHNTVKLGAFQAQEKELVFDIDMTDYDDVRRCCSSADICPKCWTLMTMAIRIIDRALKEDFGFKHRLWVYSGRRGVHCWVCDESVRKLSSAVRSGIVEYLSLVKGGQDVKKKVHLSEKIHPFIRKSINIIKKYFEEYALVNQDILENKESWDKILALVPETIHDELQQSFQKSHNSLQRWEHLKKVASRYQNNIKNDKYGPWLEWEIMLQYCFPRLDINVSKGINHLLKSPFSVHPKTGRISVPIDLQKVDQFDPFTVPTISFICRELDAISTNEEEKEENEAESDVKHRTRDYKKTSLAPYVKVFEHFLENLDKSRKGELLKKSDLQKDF
- Sequence (P49643 whole entry partner): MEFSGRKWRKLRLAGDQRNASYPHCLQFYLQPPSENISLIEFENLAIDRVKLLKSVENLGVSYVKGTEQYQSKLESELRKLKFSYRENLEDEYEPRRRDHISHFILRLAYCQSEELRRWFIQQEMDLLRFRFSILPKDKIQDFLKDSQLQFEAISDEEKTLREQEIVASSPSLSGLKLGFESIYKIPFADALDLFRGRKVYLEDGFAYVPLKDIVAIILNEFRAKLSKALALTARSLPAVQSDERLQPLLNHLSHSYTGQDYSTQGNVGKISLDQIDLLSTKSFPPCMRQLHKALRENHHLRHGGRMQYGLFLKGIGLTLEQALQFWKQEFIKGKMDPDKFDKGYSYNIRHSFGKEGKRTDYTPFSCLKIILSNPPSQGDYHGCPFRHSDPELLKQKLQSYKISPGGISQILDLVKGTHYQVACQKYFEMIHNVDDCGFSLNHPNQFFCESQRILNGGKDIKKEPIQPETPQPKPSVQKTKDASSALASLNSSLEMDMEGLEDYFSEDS
- assay_explanation: Human DNA polymerase inhibition, alpha
- Assay type: biochemical
measured_property: IC50

compound="O=C(O)P(O)(O)=S [TPFA, thiophosphonoformic acid]" measurement_target="human DNA polymerase α (Homo sapiens, UniProt P09884)" measured_property=IC50 assay_value="> 100 µM"

###

- measurement_target: HSV-2 DNA polymerase (Human herpesvirus 2, UniProt P89453)
- Construct: made in house
- Sequence (P89453 whole entry): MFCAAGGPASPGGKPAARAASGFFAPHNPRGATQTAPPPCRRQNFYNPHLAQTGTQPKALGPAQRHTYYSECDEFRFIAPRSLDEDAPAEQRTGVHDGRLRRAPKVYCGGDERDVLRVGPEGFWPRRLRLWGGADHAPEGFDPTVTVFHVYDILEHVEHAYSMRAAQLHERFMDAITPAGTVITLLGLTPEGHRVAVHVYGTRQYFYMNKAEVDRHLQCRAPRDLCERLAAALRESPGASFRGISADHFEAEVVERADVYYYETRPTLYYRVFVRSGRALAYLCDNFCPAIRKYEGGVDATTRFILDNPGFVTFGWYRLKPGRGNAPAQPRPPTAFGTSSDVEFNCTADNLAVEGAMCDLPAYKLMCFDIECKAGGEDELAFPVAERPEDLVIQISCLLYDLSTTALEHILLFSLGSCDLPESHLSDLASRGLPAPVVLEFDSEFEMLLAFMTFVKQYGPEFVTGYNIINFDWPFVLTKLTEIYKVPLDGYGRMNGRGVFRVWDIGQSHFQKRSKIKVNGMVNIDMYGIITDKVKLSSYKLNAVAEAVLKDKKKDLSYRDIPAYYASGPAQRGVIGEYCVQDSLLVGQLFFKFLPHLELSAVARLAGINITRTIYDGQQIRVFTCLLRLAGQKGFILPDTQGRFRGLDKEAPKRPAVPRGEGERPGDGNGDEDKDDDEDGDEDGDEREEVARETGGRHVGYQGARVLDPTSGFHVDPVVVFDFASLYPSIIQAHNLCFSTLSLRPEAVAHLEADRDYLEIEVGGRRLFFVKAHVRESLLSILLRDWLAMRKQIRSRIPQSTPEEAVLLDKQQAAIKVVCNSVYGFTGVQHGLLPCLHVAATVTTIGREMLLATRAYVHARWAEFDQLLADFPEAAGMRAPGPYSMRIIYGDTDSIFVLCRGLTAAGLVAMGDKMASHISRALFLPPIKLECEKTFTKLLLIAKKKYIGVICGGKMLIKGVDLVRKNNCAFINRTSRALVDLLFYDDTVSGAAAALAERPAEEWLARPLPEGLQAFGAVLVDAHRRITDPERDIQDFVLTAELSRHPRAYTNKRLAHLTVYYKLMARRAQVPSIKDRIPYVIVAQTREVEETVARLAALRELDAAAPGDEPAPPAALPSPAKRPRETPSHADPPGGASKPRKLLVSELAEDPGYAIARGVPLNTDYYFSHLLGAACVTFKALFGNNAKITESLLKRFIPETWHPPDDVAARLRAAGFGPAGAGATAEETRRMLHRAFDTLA
- assay_explanation: Viral polymerase inhibition, HSV-2
- Format: biochemical
measured_property: IC50 (µM)

compound_string=O=C(O)P(O)(O)=S unit_abbrev=µM assay_value=11.3

###

- measurement_target: human DNA polymerase δ
- assay_explanation: Human DNA polymerase inhibition, delta
- assay_context: Pol δ; "activated" DNA; read-out: ID50 (the source's name)
pIC50: −log10 of the molar value.
measured_property: pIC50

compound_string=O=C(O)P(=O)(O)O measured_property=pIC50 prefix_operator== assay_value=4.15
compound_string=O=C(O)P(O)(O)=S measured_property=pIC50 prefix_operator=< assay_value=4.00

###

- assay_explanation: Toxicity: cell density of uninfected H9 cultures
- Type: cell-based
- assay_context: human, h9 cells, drug conc. 200 μg/mL; 3 days; read-out: Cell Survival (%)
measured_property: viability at 72 h (%)

compound="O=C(O)P(O)(O)=S [TPFA, thiophosphonoformic acid]" measured_property="viability at 72 h" assay_value=84

###

- measurement_target: human DNA polymerase α (Homo sapiens, UniProt P09884)
- Construct: Mammalian DNA polymerases alpha, beta, gamma, and delta were partially purified from K562 celles; endogenous in cells; host or cells: K562 (chronic myelogenous leukemia tissue culture line)
- assay_explanation: Human DNA polymerase inhibition, alpha
- Format: biochemical
- assay_context: Pol α; "activated" DNA; read-out: ID50 (the source's name)
pIC50: −log10 of the molar value.
measured_property: pIC50

compound_string=O=C(O)P(=O)(O)O measured_property=pIC50 assay_value=4.51

###

- assay_explanation: Toxicity: cell density of uninfected H9 cultures
- Type: cell-based
- assay_context: human, h9 cells, drug conc. 7.5 μg/mL; 3 days; read-out: Cell Survival (%)
- Method: In addition to testing the activity of TPFA against HIV enzyme, the activity against the virus itself was also determined in accordance with the following protocol. […] After incubation for three days at 37° C., cell density of uninfected cultures was determined to assess toxicity of the test compound. […] The ability of test compounds to inhibit HIV replication was measured at different concentrations relative to infected, untreated cultures. […] Cytotoxicity in uninfect4ed H9 cells was not detected.
measured_property: viability at 72 h (%)

compound_string=O=C(O)P(=O)(O)O assay_value=96

###

- measurement_target: HIV-1 reverse transcriptase (Human immunodeficiency virus type 1 group M subtype B)
pIC50: −log10 of the molar value.
# reported pIC50; entries follow
measured_property: pIC50

compound_string=O=C(O)P(O)(O)=S measurement_target="HIV-1 reverse transcriptase (Human immunodeficiency virus type 1 group M subtype B)" assay_value=6.00
compound_string=O=C(O)P(=O)(O)O measurement_target="HIV-1 reverse transcriptase (Human immunodeficiency virus type 1 group M subtype B)" assay_value=6.15

###

- measurement_target: HSV-1 DNA polymerase (Human herpesvirus 1, UniProt P04293)
- Construct: made in house
- assay_explanation: Viral polymerase inhibition, HSV-1
- Type: biochemical
- assay_context: HSV-1; "activated" DNA; read-out: ID50 (the source's name)
measured_property: IC50 (nM)

compound="O=C(O)P(=O)(O)O [PFA, phosphonoformic acid]" assay_value=700

###

- measurement_target: UniProtKB P28857
- assay_explanation: Viral polymerase inhibition, HV-6
- Assay type: biochemical, Herpes Virus 6
- assay_context: HV-6; "activated" DNA; read-out: ID50 (the source's name)
pIC50: −log10 of the molar value.
measured_property: pIC50

compound="O=C(O)P(=O)(O)O [PFA, phosphonoformic acid]" assay_value=6.00

###

- assay_explanation: Toxicity: cell density of uninfected H9 cultures
- Assay type: cell-based
- assay_context: human, h9 cells, drug conc. 2 μg/mL; 3 days; read-out: Cell Survival (%)
measured_property: viability at 72 h

compound_string=O=C(O)P(O)(O)=S assay_value=110%

###

- measurement_target: HSV-2 DNA polymerase (Human herpesvirus 2, UniProt P89453)
- Construct: made in house
- assay_explanation: Viral polymerase inhibition, HSV-2
- Type: biochemical
- assay_context: HSV-2; "activated" DNA; read-out: ID50 (the source's name)
measured_property: IC50 (nM)

compound_string=O=C(O)P(=O)(O)O assay_value=700

###

- assay_explanation: Toxicity: cell density of uninfected H9 cultures
- Type: cell-based
- assay_context: human, h9 cells, drug conc. 120 μg/mL; 3 days; read-out: Cell Survival (%)
measured_property: viability at 72 h

compound_string=O=C(O)P(=O)(O)O assay_value=102%

###

- assay_explanation: Toxicity: cell density of uninfected H9 cultures
- Assay type: cell-based
- assay_context: human, h9 cells, drug conc. 0.5 μg/mL; 3 days; read-out: Cell Survival (%)
measured_property: viability at 72 h (%)

compound_string=O=C(O)P(O)(O)=S measured_property="viability at 72 h" assay_value=113

Hello, the source for this data is patent US5072032A, in case you need it.
